Give measured IC50 for each item. Keep answers brief.
# Measured on: Phosphatidylinositol 4,5-bisphosphate 3-kinase catalytic subunit gamma isoform (Homo sapiens)
# Sequence (P48736 whole entry, canonical isoform): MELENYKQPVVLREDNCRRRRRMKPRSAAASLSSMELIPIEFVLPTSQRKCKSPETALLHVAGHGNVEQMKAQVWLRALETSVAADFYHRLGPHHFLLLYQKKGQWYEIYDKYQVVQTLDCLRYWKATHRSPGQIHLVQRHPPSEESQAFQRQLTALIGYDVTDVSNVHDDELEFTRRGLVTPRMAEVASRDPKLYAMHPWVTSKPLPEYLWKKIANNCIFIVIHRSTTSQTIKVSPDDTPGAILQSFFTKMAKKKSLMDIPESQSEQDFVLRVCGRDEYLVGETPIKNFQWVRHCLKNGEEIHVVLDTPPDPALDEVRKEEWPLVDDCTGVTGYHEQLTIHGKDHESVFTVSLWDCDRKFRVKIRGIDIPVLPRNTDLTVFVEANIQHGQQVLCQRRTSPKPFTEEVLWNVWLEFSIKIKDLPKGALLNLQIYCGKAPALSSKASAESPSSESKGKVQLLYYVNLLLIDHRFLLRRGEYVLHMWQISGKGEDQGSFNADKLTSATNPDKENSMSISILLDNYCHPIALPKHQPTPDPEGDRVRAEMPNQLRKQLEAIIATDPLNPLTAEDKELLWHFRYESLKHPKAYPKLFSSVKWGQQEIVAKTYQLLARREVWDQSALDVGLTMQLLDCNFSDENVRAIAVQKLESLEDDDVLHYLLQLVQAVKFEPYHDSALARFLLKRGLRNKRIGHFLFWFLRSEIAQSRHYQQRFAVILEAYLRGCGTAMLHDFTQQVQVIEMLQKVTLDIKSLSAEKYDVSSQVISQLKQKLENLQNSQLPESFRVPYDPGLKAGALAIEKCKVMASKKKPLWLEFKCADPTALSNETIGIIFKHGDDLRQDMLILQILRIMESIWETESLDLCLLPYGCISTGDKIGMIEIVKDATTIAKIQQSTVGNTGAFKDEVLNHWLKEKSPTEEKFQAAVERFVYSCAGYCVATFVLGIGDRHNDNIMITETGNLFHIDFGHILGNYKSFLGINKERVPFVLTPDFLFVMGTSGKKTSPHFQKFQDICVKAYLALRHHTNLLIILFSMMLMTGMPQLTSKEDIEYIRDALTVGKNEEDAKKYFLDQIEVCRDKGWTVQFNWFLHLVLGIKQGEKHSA
# Assay method text: Inhibition of PI3Kgamma (unknown origin) in […] stimulated human THP-1 cells assessed as reduction in Akt phosphorylation level at Ser473 residue preincubated for 60 mins followed by rhMCP-1 stimulation and measured after 2 mins by AlphaLisa assay
# Assay type: cell-based
Express your answer as a number followed by its unit.

Could you please provide reported IC50 for `CCN1Cc2cc(-c3ccn4nc(N)c(C(=O)NC5CC5)c4n3)cc(C)c2C1=O` ? Thanks!
0.338 µM

Given the molecule `Cc1cc(-c2ccn3ncc(C(=O)Nc4cnn(C)c4)c3n2)cc2c1C(=O)N([C@@H](C)C1CC1)C2` , write its reported IC50.
0.638 µM

Tell me its IC50 given `Cc1cc(-c2ccn3nc(N)c(C(=O)N[C@H]4CC[C@H](C(=O)O)CC4)c3n2)cc2c1C(=O)N([C@@H](C)C1CC1)C2` as the entry.
0.397 µM

Recall and state the measured IC50 for `Cc1cc(-c2ccn3nc(N)c(C(=O)N[C@H]4CC[C@@](C)(O)CC4)c3n2)cc2c1C(=O)N([C@@H](C)C1CC1)C2` .
0.102 µM

Using the record for `C[C@H](N1Cc2cc(-c3ccn4nc(N)c(C(=O)NC5CC5)c4n3)cc(NS(C)(=O)=O)c2C1=O)C(F)(F)F` , state its measured IC50.
0.016 µM

Entry `C[C@@H](C1CC1)N1Cc2cc(-c3ccn4nc(N)c(C(=O)N[C@H]5CC[C@](O)(C(F)(F)F)CC5)c4n3)cc(NS(C)(=O)=O)c2C1=O` needs its IC50 filled in; supply it.
0.052 µM

Provide measured IC50 value, entry: `Cc1cc(-c2ccn3nc(N)c(C(=O)N[C@@H](CO)C4CC4)c3n2)cc2c1C(=O)N([C@@H](C)C1CC1)C2`
0.133 µM

====

# Assay method text: Apparent permeability of the compound across apical to basolateral side in human Caco-2 cells
# Assay type: ADME, cell-based
Please provide measured Papp A→B for the entries that follow.
Value expressed in ×10⁻⁶ cm/s; do not type the unit.

# return recorded Papp A→B for input `C[C@@H](C1CC1)N1Cc2cc(-c3ccn4nc(N)c(C(=O)N[C@H]5CC[C@@](C)(O)CC5)c4n3)cc(OC(F)F)c2C1=O`
16.8

Give reported Papp A→B value for `C[C@@H](C1CC1)N1Cc2cc(-c3ccn4nc(N)c(C(=O)N[C@H]5CC[C@@](C)(O)CC5)c4n3)cc(OC(F)(F)F)c2C1=O`
4.7

====

# Assay method text: Metabolic stability in human hepatocytes assessed as intrinsic clearance per 10^6 cells at 0.5 uM by LC-MS/MS analysis
# Assay type: ADME, cell-based, Hepatocyte
# Condition set: read-out: CLH
Threshold check on hepatocyte CLint at 0.5 µM: strictly below 4 µL/min/1e6 cells is Criterion met; on or above 4 µL/min/1e6 cells is Criterion not met.

hepatocyte CLint at 0.5 µM strictly < 4 µL/min/1e6 cells for this compound? `C[C@@H](C1CC1)N1Cc2cc(-c3ccn4nc(N)c(C(=O)NC5CC5)c4n3)cc(S(C)(=O)=O)c2C1=O`
Criterion met

Determine whether this compound shows hepatocyte CLint at 0.5 µM lower than 4 µL/min/1e6 cells (ties excluded): `CNS(=O)(=O)c1cc(-c2ccn3nc(N)c(C(=O)N[C@H]4CC[C@](C)(O)CC4)c3n2)cc2c1C(=O)N([C@@H](C)C(F)(F)F)C2`
Criterion met

Strictly below 4 µL/min/1e6 cells: is that where hepatocyte CLint at 0.5 µM of `Cc1cc(-c2ccn3nc(N)c(C(=O)N[C@H]4CNC(=O)C4)c3n2)cc2c1C(=O)N([C@@H](C)C1CC1)C2` sits?
Criterion met

Does `C[C@@H](C1CC1)N1Cc2cc(-c3ccn4nc(N)c(C(=O)NC5CC5)c4n3)cc(Cl)c2C1=O` have hepatocyte CLint at 0.5 µM strictly under 4 µL/min/1e6 cells?
Criterion met

# TODO verify hepatocyte CLint at 0.5 µM < 4 µL/min/1e6 cells strictly for this compound: `COc1cc(-c2ccn3nc(N)c(C(=O)NC4CC4)c3n2)cc2c1C(=O)N([C@@H](C)C1CC1)C2`
Criterion met

Confirm or reject: hepatocyte CLint at 0.5 µM of `C[C@H](N1Cc2cc(-c3ccn4nc(N)c(C(=O)N[C@@H](CO)C5CC5)c4n3)cc(C3CC3)c2C1=O)C(F)(F)F` lies strictly below 4 µL/min/1e6 cells
Criterion not met

Dear colleague, could you confirm whether hepatocyte CLint at 0.5 µM of `CC[C@H](N1Cc2cc(-c3ccn4nc(N)c(C(=O)NC5CC5)c4n3)cc(NS(C)(=O)=O)c2C1=O)C(F)(F)F` falls below 4 µL/min/1e6 cells? Thanks.
Criterion met

Please check: hepatocyte CLint at 0.5 µM for `CNS(=O)(=O)c1cc(-c2ccn3nc(N)c(C(=O)N[C@@H](CO)C4CC4)c3n2)cc2c1C(=O)N([C@@H](C)C(F)(F)F)C2` , strictly under 4 µL/min/1e6 cells or not?
Criterion met

Is it true that hepatocyte CLint at 0.5 µM reported for `C[C@@H](C1CC1)N1Cc2cc(-c3ccn4nc(N)c(C(=O)NC5CC5)c4n3)cc(S(=O)(=O)C3CC3)c2C1=O` is less than 4 µL/min/1e6 cells?
Criterion met

Report whether reported hepatocyte CLint at 0.5 µM is lower than 4 µL/min/1e6 cells (strictly) for `Cc1cc(-c2ccn3nc(N)c(C(=O)N[C@@H](CO)C4CC4)c3n2)cc2c1C(=O)N([C@@H](C)C1CC1)C2`
Criterion met

Lab log: compare recorded hepatocyte CLint at 0.5 µM with 4 µL/min/1e6 cells; is it strictly lower for `Cc1cc(-c2ccn3ncc(-c4cnn(C)c4)c3n2)cc2c1C(=O)N([C@@H](C)C1CC1)C2` ?
Criterion not met

Please check: hepatocyte CLint at 0.5 µM for `Cc1cc(-c2ccn3nc(N)c(C(=O)NC4CC4)c3n2)cc2c1C(=O)N([C@@H](C)C1CC1)C2` , strictly under 4 µL/min/1e6 cells or not?
Criterion not met

Please let me know if `Cc1cc(-c2ccn3nc(N)c(C(=O)N[C@H]4CC[C@H](N)CC4)c3n2)cc2c1C(=O)N([C@@H](C)C1CC1)C2` shows hepatocyte CLint at 0.5 µM below 4 µL/min/1e6 cells.
Criterion not met

Field: below-cutoff. Rule: recorded hepatocyte CLint at 0.5 µM strictly less than 4 µL/min/1e6 cells. Subject: `Cc1cc(-c2ccn3nc(N)c(C(=O)Nc4cnn(C)c4)c3n2)cc2c1C(=O)N([C@@H](C)C1CC1)C2`
Criterion not met
